Recorded inhibition at 10 µM by entry
- assay_notes: Antiinflammatory activity in rat polymorphonuclear leukocytes assessed as inhibition of platelet-activating factor-induced glucuronidase release at 10 uM preincubated for 15 mins before challenge by spectrophotometry
- Type: functional

Previously resolved entries follow.
* C=C[C@H]1[C@H](O[C@@H]2O[C@H](CO)[C@@H](O)[C@H](O)[C@H]2O)OC=C(C(=O)O)[C@H]1C[C@H]1OC(=O)C(O)=C1c1ccccc1 [LONIPHENYRUVIRIDOSIDE D] | < 30%
* C=C[C@H]1[C@H](O[C@@H]2O[C@H](CO)[C@@H](O)[C@H](O)[C@H]2O)OC=C(C(=O)OC)[C@H]1/C=C/c1cc(C(=O)[O-])c[n+](C)c1 [LONIJAPOSIDE G] | < 30%
* C=C[C@@H]1/C(=C\Cc2cc(C(=O)[O-])c[n+](CCCC(=O)O)c2)C(C(=O)OC)=CO[C@H]1O[C@@H]1O[C@H](CO)[C@@H](O)[C@H](O)[C@H]1O [LONIJAPOSIDE H] | 68.6%

Qu. Look up and state reported inhibition at 10 µM for C=C[C@H]1[C@H](O[C@@H]2O[C@H](CO)[C@@H](O)[C@H](O)[C@H]2O)OC=C2C(=O)O[C@@H](/C(=C(/O)C(=O)O)c3ccccc3)C[C@H]21 [LONIPHENYRUVIRIDOSIDE B]
Ans. < 30%

Qu. Look up and state reported inhibition at 10 µM for C=C[C@H]1[C@H](O[C@@H]2O[C@H](CO)[C@@H](O)[C@H](O)[C@H]2O)OC=C(C(=O)[O-])[C@H]1/C=C/c1ccc[n+](CCCC(=O)O)c1 [LONIJAPOSIDE M]
Ans. < 30%

----------
- assay_notes: Antiinflammatory activity in rat polymorphonuclear leukocytes assessed as inhibition of platelet-activating factor-induced glucuronidase release at 10 uM preincubated for 15 mins before challenge by spectrophotometry
- Assay type: functional
Recorded inhibition at 10 µM by entry

Previously resolved entries follow.
- C=C[C@H]1[C@H](O[C@@H]2O[C@H](CO)[C@@H](O)[C@H](O)[C@H]2O)OC=C(C(=O)[O-])[C@H]1/C=C/c1ccc[n+](CC(=O)O)c1 [LONIJAPOSIDE K]: 54.6%
- C=C[C@H]1[C@H](O[C@@H]2O[C@H](CO)[C@@H](O)[C@H](O)[C@H]2O)OC=C(C(=O)OC)[C@H]1/C=C/c1ccc[n+](CCCC(=O)[O-])c1 [LONIJAPOSIDE N]: < 30%
- C=C[C@H]1[C@H](O[C@@H]2O[C@H](CO)[C@@H](O)[C@H](O)[C@H]2O)OC=C(C(=O)O)[C@H]1/C=C/c1cc(C(=O)[O-])c[n+](CCCC(=O)O)c1 [DEMETHYL LONIJAPOSIDE A]: < 30%

Qu. Look up and state reported inhibition at 10 µM for C=C[C@H]1[C@H](O[C@@H]2O[C@H](CO)[C@@H](O)[C@H](O)[C@H]2O)OC=C(C(=O)OC)[C@H]1/C=C/c1cc(C(=O)[O-])c[n+](CC)c1 [LONIJAPOSIDE E]
Ans. < 30%

Qu. Look up and state reported inhibition at 10 µM for C=C[C@H]1[C@H](O[C@@H]2O[C@H](CO)[C@@H](O)[C@H](O)[C@H]2O)OC=C(C(=O)O)[C@H]1/C=C/c1cc(C(=O)[O-])c[n+](CC)c1 [LONIJAPOSIDE F]
Ans. 87.6%

Qu. Look up and state reported inhibition at 10 µM for C=C[C@H]1[C@H](O[C@@H]2O[C@H](CO)[C@@H](O)[C@H](O)[C@H]2O)OC=C(C(=O)[O-])[C@H]1/C=C/c1ccc[n+](CCO)c1 [LONIJAPOSIDE I]
Ans. 72.1%

Qu. Look up and state reported inhibition at 10 µM for O=C(O)C1=CO[C@@H](O[C@@H]2O[C@H](CO)[C@@H](O)[C@H](O)[C@H]2O)[C@H]2[C@@H]1C[C@@H]1C[C@H]2OC=C1c1ccccc1 [LONIPHENYRUVIRIDOSIDE A]
Ans. < 30%

Qu. Look up and state reported inhibition at 10 µM for C=C[C@H]1[C@H](O[C@@H]2O[C@H](CO)[C@@H](O)[C@H](O)[C@H]2O)OC=C2C(=O)O[C@H](/C(=C(/O)C(=O)O)c3ccccc3)C[C@@H]21 [LONIPHENYRUVIRIDOSIDE C]
Ans. < 30%

Qu. Look up and state reported inhibition at 10 µM for C=C[C@H]1[C@H](O[C@@H]2O[C@H](CO)[C@@H](O)[C@H](O)[C@H]2O)OC=C(C(=O)OC)[C@H]1/C=C/c1ccc[n+](CCO)c1 [LONIJAPOSIDE J]
Ans. < 30%

Qu. Look up and state reported inhibition at 10 µM for C[C@@H]1C(=O)O[C@H]2[C@H](O)[C@@]34[C@H]5C[C@@H](C(C)(C)C)[C@]36[C@@H](OC(=O)[C@@H]6O)O[C@@]4(C(=O)O5)[C@@]12O [GINKOLIDE B]
Ans. 84.3%

Qu. Look up and state reported inhibition at 10 µM for C=C[C@H]1[C@H](O[C@@H]2O[C@H](CO)[C@@H](O)[C@H](O)[C@H]2O)OC=C(C(=O)[O-])[C@H]1/C=C/c1ccc[n+](CCC(=O)O)c1 [LONIJAPOSIDE L]
Ans. < 30%
